Provenance of the data: PubChem BioAssay (NCI)

Test: NCI Yeast Anticancer Drug Screen. Data for the bub3 strain (AID 167)
Conditions: S. cerevisiae bub3 mutant strain, at 50.0 µM, stronger effect = higher value
Compounds without any hit were thinned out: in the full panel of roughly 79,000, 15% have a hit.
Known growth inhibition of a selection of compounds

- compound: "CCOC(=O)CNCc1cccc(C)c1"
  output.unit: "%"
  growth inhibition: 0.6
- compound: "OC(C(=S)N1CCCC1)(c1ccccc1)c1ccccc1"
  output.unit: "%"
  growth inhibition: 9.6
- compound: "CC1(C)OCC(C2OC3OC(C)(C)OC3/C2=N/NC(=O)c2cc3cc(OCc4ccccc4)ccc3[nH]2)O1 (configuration not stated)"
  output.unit: "%"
  growth inhibition: 84.3
- compound: "OCc1c(-c2ccccc2)oc(-c2ccccc2)c1CN1CCOCC1"
  output.unit: "%"
  growth inhibition: 12
- compound: "Oc1ccc(O)c(-n2cccn2)c1-n1cccn1"
  output.unit: "%"
  growth inhibition: 0
- compound: "CCOC(=O)Oc1ccc(C(=O)Oc2ccccc2)cc1OC"
  output.unit: "%"
  growth inhibition: 42.1
- compound: "CCC(=C(c1ccc(OCc2ccccc2)cc1)c1ccc(OCc2ccccc2)cc1)c1ccc(OC)cc1"
  output.unit: "%"
  growth inhibition: -20.8
- compound: "Cc1c(Cl)cccc1NC(=O)OC/C=C/c1ccccc1"
  output.unit: "%"
  growth inhibition: 5.6
- compound: "O=S(=O)(O)SCCNCCCCc1ccccc1"
  output.unit: "%"
  growth inhibition: -6.4
- compound: "CCOC(=O)N1CCN(C(=S)N/N=C(\\C)c2cnccn2)CC1"
  output.unit: "%"
  growth inhibition: 99.5
- compound: "CCOC(=O)/C(CC)=N\\O"
  output.unit: "%"
  growth inhibition: -4.45
- compound: "CCCCOCCOCCOC(=O)c1ccc(C)cc1"
  output.unit: "%"
  growth inhibition: 46

###

Test: NCI Yeast Anticancer Drug Screen. Data for the rad50 strain (AID 155);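 further: 0% = growth of vehicle-only cultures of the same strain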
Settings: S. cerevisiae rad50 strain growth inhibition; at 50.0 µM; stronger effect = higher value
Compounds without any hit were thinned out: in the full panel of roughly 79,000, 15% have a hit.

- molecule: "COC(=O)[C@@]1(NC(=O)C(CC(=O)OC(C)(C)C)NC(=O)OC(C)(C)C)C[C@H]1C (stereo partly specified)"
  growth inhibition, %: -48.8
- molecule: "CCOc1ccc(/C=C2\\N=C(c3ccc([N+](=O)[O-])cc3)OC2=O)cc1"
  growth inhibition, %: 11.2
- molecule: "CC12CCC3c4ccc(Cc5ccc([N+](=O)[O-])cc5)cc4CCC3C1CCC2=O (stereo unspecified)"
  growth inhibition, %: 32.6
- molecule: "O=[N+]([O-])c1ccc(OS(=O)(=O)Cc2ccccc2)cc1"
  growth inhibition, %: 3.8
- molecule: "CN1C(=O)C(CCCN=C(N)N)NC1=S (stereo unspecified)"
  growth inhibition, %: -13.7
- molecule: "CC1(O)CC2C(CC1SCCO)C2(C)C (stereo unspecified)"
  growth inhibition, %: -30.4
- molecule: "Cc1ccccc1NC(=O)NC(Oc1ccccc1)(C(F)(F)F)C(F)(F)F"
  growth inhibition, %: -6.95
- molecule: "CCOC(=O)C(C#N)C1=CC(=O)C(=O)c2ccc(O)cc21 (stereo unspecified)"
  growth inhibition, %: -4.8
- molecule: "COC1=CC(=O)c2ccccc2C1(CCC=C(C)C)C1=NC(C)(C)CO1 (stereo unspecified)"
  growth inhibition, %: -27
- molecule: "NS(=O)(=O)c1ccc(NC(=S)/N=C/c2c(O)c3ccccc3oc2=O)cc1"
  growth inhibition, %: 6.2
- molecule: "Cc1cccnc1C"
  growth inhibition, %: 16.9

###

Experiment: NCI Yeast Anticancer Drug Screen. Data for the sgs1 mgt1 strain (AID 161);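 further: 0% = growth of cultures given vehicle only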
Details: S. cerevisiae sgs1 mgt1 strain, at 50.0 µM, stronger effect = higher value
The panel holds about 79,000 compounds, 15% with a hit somewhere; the sample as a whole holds those more often. Activity calls are given as the source filed them. Cut-off read from the data, not from the text of the source: active = growth inhibition above about 70%; inactive = the rest.
Known growth inhibition of a selection of compounds
endpoint.label: growth inhibition

- compound: "CC(=O)CC(=O)NN(C)C"
  val: "-28.9% (inactive)"
- compound: "O=c1cc(CC2(O)CCCCC2)c2ccccc2[nH]1"
  val: "-2.5% (inactive)"
- compound: "CN(C)CCCN=c1c2ccccc2n(C)c2[nH]c(=O)n(C)c(=O)c12"
  val: "-16.2% (inactive)"
- compound: "[Cu+2].[Cu+2].c1ccc2c(c1)-c1nc-2nc2[n-]c(nc3nc(nc4[n-]c(n1)c1ccccc41)-c1ccccc1-3)c1cc3c4nc5nc(nc6[n-]c(nc7nc(nc([n-]4)c3cc21)-c1ccccc1-7)c1ccccc61)-c1ccccc1-5"
  val: "11.1% (inactive)"
- compound: "CN(/N=C\\c1ccccc1)C(c1ccccc1)N(C)/N=C/c1ccccc1 (stereo not given)"
  val: "15.2% (inactive)"

###

Test: NCI Yeast Anticancer Drug Screen. Data for the bub3 strain (AID 167)
Conditions: S. cerevisiae bub3 mutant strain, at 50.0 µM, stronger effect = higher value
About 79,000 compounds went through this panel and 15% of them were active in at least one assay; those are over-represented in the sample as a whole. The source made the active and inactive calls. Rule as the data show it: active = growth inhibition above about 70%; inactive = the rest.

- compound: "CN(C)CCSc1n[nH]c(=O)[nH]c1=O"
  growth inhibition: "-16.1% (inactive)"
- compound: "CCCCc1c2c(nc3c1CCc1cc4c(nc1-3)-c1nc3c(c(CCCC)c1CC4)CCC/C3=C\\c1ccccc1)/C(=C/c1ccccc1)CCC2"
  growth inhibition: "5.05% (inactive)"
- compound: "O=C(NCCCCCCNC(=O)C1CCCN1C(=O)OCc1ccccc1)C1CCCN1C(=O)OCc1ccccc1 (centres undefined)"
  growth inhibition: "-5.7% (inactive)"
- compound: "CC1(C)[C@@H]2CC[C@](C)(O)[C@H]1C2"
  growth inhibition: "-3.15% (inactive)"
- compound: "CC/C(=C\\c1ccc(Cl)cc1)c1ccncc1"
  growth inhibition: "99.2% (active)"
- compound: "Nc1ccc(C(=O)O)cc1O"
  growth inhibition: "9.65% (inactive)"
- compound: "C[n+]1ccccc1/C=C/c1csc2ccccc12"
  growth inhibition: "-0.6% (inactive)"
- compound: "C1=C(c2ccccc2)CC(c2ccc(-c3ccccc3)cc2)=C1"
  growth inhibition: "-10.2% (inactive)"
- compound: "O=[N+]([O-])c1ccc(N=CNc2ccc([N+](=O)[O-])cc2)cc1"
  growth inhibition: "17.1% (inactive)"
- compound: "C/C=C/c1ccc(OCC)c(OC)c1"
  growth inhibition: "-17.2% (inactive)"
- compound: "O=C1C=C2CCC(c3ccc(O)cc3)CC2CC1 (centres undefined)"
  growth inhibition: "-0.45% (inactive)"
- compound: "CC(C)C1=C(Cc2ccccc2)C(=O)O/C1=C\\c1cc(Cl)c(O)c(Cl)c1"
  growth inhibition: "32.5% (inactive)"
- compound: "NC(N)=NS(=O)(=O)c1ccc(NC(=O)c2ccc(Cl)c3c(Nc4ccc(S(=O)(=O)N=C(N)N)cc4)c4ccccc4nc23)cc1"
  growth inhibition: "10.2% (inactive)"
- compound: "CCCCCCCCC/C=C\\C(=O)O"
  growth inhibition: "-13.8% (inactive)"
- compound: "COc1ccc(CCCCl)c(C2=NCCc3cc(OC)c(OC)cc32)c1"
  growth inhibition: "-37.8% (inactive)"
- compound: "COc1cc(C(=O)O[C@H]2CCC3CCC2N3C)cc(OC)c1OC (some centres undefined)"
  growth inhibition: "-3.85% (inactive)"
- compound: "CCCCCC(N)C(=O)O (centres undefined)"
  growth inhibition: "-2.35% (inactive)"
- compound: "O=C(NNC(=O)c1ccccc1Br)c1ccccc1"
  growth inhibition: "-21.5% (inactive)"
- compound: "COc1ccc(N2C(=O)CC(c3c[nH]c4ccccc34)C2=O)cc1 (centres undefined)"
  growth inhibition: "13.8% (inactive)"
- compound: "CC(c1ccccc1)n1cnc2c(Cl)ncnc21 (centres undefined)"
  growth inhibition: "6.3% (inactive)"
- compound: "Cc1c(Cl)cc(C(C)(C)C)c(O)c1Cc1c(C)c(Cl)cc(C(C)(C)C)c1O"
  growth inhibition: "0% (inactive)"
- compound: "Cc1cc(C)c2c(c1)Nc1ccccc1P2c1ccccc1 (centres undefined)"
  growth inhibition: "44.6% (inactive)"
- compound: "COc1ccc(N2C=Nn3c(nc4sc5c(c4c3=O)CCCC5)C2)cc1"
  growth inhibition: "4.25% (inactive)"
- compound: "COC(=O)c1nc2c(n(C)/c1=N/C(=O)Nc1ccccc1)CCCC2"
  growth inhibition: "4.65% (inactive)"

###

Test: NCI Yeast Anticancer Drug Screen. Data for the rad50 strain (AID 155);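 further: 0% = growth of vehicle-only cultures of the same strain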
Details: S. cerevisiae rad50 strain growth inhibition; at 50.0 µM
The panel holds about 79,000 compounds, 15% with a hit somewhere; the sample as a whole holds those more often. The source made the active and inactive calls. Rule as the data show it: active = growth inhibition above about 70%; inactive = the rest.
Outcomes: active, inactive

- compound: "CC(C)C(O)C(C)N (centres undefined)"
  cat: "inactive"
- compound: "COc1ccccc1NC(=O)CC(=O)N1N=C(N(c2ccccc2)c2ccccc2)CC1c1ccccc1 (centres undefined)"
  cat: "inactive"
- compound: "O=[N+]([O-])c1ccc(N=Nc2c(S(=O)(=O)O)cc3cc(S(=O)(=O)O)ccc3c2O)c([N+](=O)[O-])c1"
  cat: "inactive"
- compound: "O=c1n(-c2ccccc2)c(=O)n2c(=O)n(-c3ccccc3)c(=O)n12"
  cat: "inactive"
- compound: "O=C1C2=C(Nc3cc([N+](=O)[O-])ccc3N2)OC1c1ccc(Cl)cc1Cl (centres undefined)"
  cat: "inactive"
- compound: "CC(C)N1CN(C(C(=O)N[C@@H]2C(=O)N3C2SC(C)(C)C3C(=O)O)c2ccccc2)CSC1=S (some centres undefined)"
  cat: "inactive"
- compound: "O=C1c2cccc3cc([N+](=O)[O-])cc(c23)C(=O)N1CCNCCNCCNCCN1C(=O)c2cccc3cc([N+](=O)[O-])cc(c23)C1=O"
  cat: "active"
- compound: "COc1ccc(/C=N/Nc2ccc(S(=O)(=O)O)cc2)cc1"
  cat: "inactive"
- compound: "CCOC(=O)c1sc(Nc2cc(Cl)ccc2Cl)nc1C"
  cat: "inactive"
